Ref: ChEMBL document CHEMBL1201862

System: TK-10
protocol summary: NCI tumour cell line growth inhibition, 48 h
Activity calls are given as the source filed them. Rule as the data show it: active = GI50 up to about 1.1 µM and inactive = higher.
Labels: yes (1) for active, no (0) for inactive

compound: CC(C)=C=CP(=O)(O)c1ccccc1
class name: no (0)

compound: CC1=CC(=O)CC(C)(C)C1(O)/C=C/C(C)=C/C(=O)O (configuration not stated)
class name: no (0)

compound: c1ccc2c(c1)Sc1ccccc1N2C1CN2CCC1CC2 (configuration not stated)
class name: no (0)

compound: C=CCOc1ccc(C(=N/NC(=O)c2ccccc2)/N=N/c2ccccc2)cc1OC
class name: no (0)

compound: Cc1cc(Cl)ccc1NC(=O)CCCC(=O)C1CCC/C1=N\NC(=O)CC#N (configuration not stated)
class name: no (0)

compound: C=C(C(=O)OCC)C(=O)OCC
class name: no (0)

compound: COc1ccc([C@@H]2OC(=O)C3C2C(=O)O[C@H]3c2ccc(OC)c(OC)c2)cc1OC (some centres not stated)
class name: no (0)

compound: CC(C)(C)c1cc(Cc2ccc([N+](C)(C)C)cc2)c(O)c(C(C)(C)C)c1
class name: no (0)

compound: Cc1ns/c(=N\C(=S)N(C)C)n1C
class name: no (0)

compound: O=C(O)CCC(NC(=O)c1ccc(Nc2cnc3ccc(C(F)(F)F)cc3n2)cc1)C(=O)O (configuration not stated)
class name: no (0)

compound: Cc1ccc2c(=O)c3c(O)c4c(cc3n(C)c2c1)OC(C)(C)C=C4
class name: no (0)

compound: COc1ccc(N(CN2C(=O)CCC2OC)C(C)=O)cc1 (configuration not stated)
class name: no (0)

compound: CC[C@H](NC1=C(Cl)C(=O)c2c(O)ccc(O)c2C1=O)C(=O)OC
class name: no (0)

compound: COC(=O)CCC(NC(=S)N/N=C(\C)c1ccc[nH]1)C(=O)OC (configuration not stated)
class name: no (0)

compound: CCOC1C=CCCO1 (configuration not stated)
class name: no (0)

compound: COc1ccc(C2c3cc4c(cc3OC(O)(CO)C2C(=O)O)OCO4)c(OC)c1OC.COc1ccc(C2c3cc4c(cc3OC3(O)COC(=O)C23)OCO4)c(OC)c1OC (configuration not stated)
class name: no (0)

compound: N#CCCNCCN(CCN(C(=O)Nc1ccccc1)c1ccccc1)C(=O)Nc1ccccc1
class name: no (0)

compound: NC(=O)NCCCC(NC(=O)OCCCCn1ccc(=O)[nH]c1=O)C(=O)O (configuration not stated)
class name: no (0)

compound: Cc1ccc(S(=O)(=O)c2ccc(NC(=O)SCCC(=O)O)cc2)cc1
class name: no (0)

compound: COc1ccccc1NC(=O)CC(=O)NNCC(=O)Nc1nnc(-c2ccccc2)o1
class name: no (0)

compound: CN(C)CCn1c(=O)c2ccc3c4c(nn3CCN(C)C)c3cc([N+](=O)[O-])ccc3n(c1=O)c24
class name: yes (1)

compound: Oc1cc(CF)nc(S)n1
class name: no (0)

compound: COc1ccc(C(=O)/C(Br)=C/C(=O)O)cc1
class name: no (0)

compound: O=C1C=CC(=C(c2ccccc2)c2ccc(O)cc2)C=C1
class name: no (0)

compound: CCOC(=O)C(=O)Nc1c(C)cccc1C(C)C
class name: no (0)

compound: CN(C)CCNC(=O)c1ccccc1Nc1c(Cl)cccc1Cl
class name: no (0)

compound: CC(=O)O[C@H]1CC[C@@]2(C)C(=CC[C@@H]3[C@@H]2CC[C@]2(C)C(=N/O)/C(=C\c4ccccc4)C[C@@H]32)C1
class name: no (0)

compound: N/N=C1\C(=O)N(c2ccc(Cl)c(Cl)c2)C(=O)C1C(=O)Nc1ccc(Cl)c(Cl)c1 (configuration not stated)
class name: no (0)

compound: O=C(O)C1(Cc2ccc3c(c2)CCC3)Cc2ccccc2C1=O (configuration not stated)
class name: no (0)

compound: O=C(/C=C1/NC(=O)CS1)Nc1ccccc1
class name: no (0)

compound: CC(C)C1CC(CO)(CNc2nc(N)nc(Cl)c2C=O)C1 (configuration not stated)
class name: no (0)

compound: COc1ccc2c(cnc3c4cc(OC)c(OC)cc4ccc23)c1
class name: no (0)

compound: CC(=O)NC1C(OCc2ccccc2)OC(CO)C(O)C1OCC(=O)N[C@@H](C)C(=O)N[C@H](CCC(=O)NCCCNc1c2ccccc2nc2cccc([N+](=O)[O-])c12)C(N)=O (some centres not stated)
class name: yes (1)

compound: O=C1CN2CCN(CC2)CC(=O)Nc2ccc(cc2)S(=O)(=O)c2ccc(cc2)NC(=O)CN2CCN(CC2)CC(=O)Nc2ccc(cc2)S(=O)(=O)c2ccc(cc2)N1
class name: no (0)

compound: Cc1nnc(N2C(=O)C(=Cc3ccc(Cl)cc3)N=C2c2ccc(Cl)cc2)nc1/C=C\c1ccc(N(C)C)cc1
class name: no (0)

compound: N#CC(C#N)/N=N/c1ccc(-c2nc3ccccc3o2)cc1
class name: no (0)

compound: CCOc1cc2c[n+](C)c3c4cc(OC)c(OC)cc4ccc3c2cc1OC
class name: no (0)

compound: COc1cc(N(CCC#N)CCC#N)ccc1C(/N=N/c1cccc(C)c1)=N\NC(=O)c1ccc(C)cc1
class name: no (0)

compound: COc1ccc(CC(=O)c2cc(OC)c(OC)cc2C)cc1OC
class name: no (0)

compound: CC(C)=CCC[C@@H](C)C1=C(O)C(O)C(C)=C2N=C(c3ccccc3)C(=O)OC21 (some centres not stated)
class name: no (0)

compound: CC(Oc1ccc2c(=O)cc(-c3ccccc3)oc2c1)C(=O)O (configuration not stated)
class name: no (0)

compound: O=[N+]([O-])c1cc(Cl)cc2cc(Cl)cnc12
class name: no (0)

====

Test system: OVCAR-8
protocol summary: NCI tumour cell line growth inhibition, 48 h
Activity calls are given as the source filed them. Rule as the data show it: active = GI50 up to about 1.1 µM and inactive = higher.
reported endpoint: GI50

compound: CC(=O)CC1(O)C(=O)c2c(Br)sc(Br)c2C1=O
value measured: 23 µM (inactive)

compound: C=CCOc1ccc2c(C)cc(=O)oc2c1C
value measured: 56.8 µM (inactive)

compound: COc1ccccc1NC(=S)N/N=C/c1cccc(C)n1
value measured: 4.07 µM (inactive)

compound: C[S+](C)([O-])=Nn1c(=O)n2n(c1=O)[C@H]1CC[C@@H]2C1
value measured: > 100 µM (inactive)

compound: CN(C)C(=S)SCC(=O)Nc1ccccc1
value measured: > 100 µM (inactive)

compound: CC1C(c2ccc3c(c2)OCO3)c2cc3c(cc2OC1N1CCCCC1)OCO3 (stereo not drawn)
value measured: > 100 µM (inactive)

compound: COc1ccc(C(C#N)NNC(=O)Cc2ccccc2)cc1OC (stereo not drawn)
value measured: > 100 µM (inactive)

compound: NNc1nncc2[nH]nnc12
value measured: > 100 µM (inactive)

compound: O=CN/C=C/c1cccc(O)c1
value measured: 54.1 µM (inactive)

compound: CCOC(=O)c1c2c(n(-c3ccc(C)cc3)c1C)-c1ccccc1C(=O)C2(C(=O)OCC)C(=O)OCC
value measured: 29.2 µM (inactive)

compound: OCCN(CO)CO
value measured: > 100 µM (inactive)

compound: C[C@]12CCC[C@H](OC=O)C1(O)C[C@H](C(=O)O)CC2 (stereo partly drawn)
value measured: > 100 µM (inactive)

compound: O=C(O)c1cc2ccccc2c(S(=O)(=O)O)c1O
value measured: > 100 µM (inactive)

compound: Cc1ccc(S(=O)(=O)Nc2ccccc2C=O)cc1
value measured: 14.7 µM (inactive)

compound: CC(=O)OCC1OC(n2c(C)c(C(C)=O)c(-c3ccc(Cl)cc3)c(C#N)c2=S)C(OC(C)=O)C(OC(C)=O)C1OC(C)=O (stereo not drawn)
value measured: > 100 µM (inactive)

compound: Cc1cc(=O)[nH]c(-n2[nH]c(C)c(CCO)c2=O)n1
value measured: > 100 µM (inactive)

compound: COc1cccc(C(=O)N[C@@H]2[C@H](O)[C@@H](CO)O[C@H]2n2cnc3c(N)ncnc32)c1
value measured: > 100 µM (inactive)

compound: CC(C)(C)OC(=O)NNC(=O)C1Cc2ccccc2OC1=O (stereo not drawn)
value measured: > 100 µM (inactive)

compound: O=C1c2ccccc2-c2cc([N+](=O)[O-])c([N+](=O)[O-])cc21
value measured: 1.64 µM (inactive)

compound: Cc1cccc2[n+]1[C@H]1[C@H]([C@@H]3O[C@H]1c1ccccc13)[S+]([O-])N2 (stereo partly drawn)
value measured: 9.98 µM (inactive)

compound: CCOc1ccc(/N=C/c2cccc3cccnc23)cc1
value measured: > 100 µM (inactive)

compound: CSC1=C(C)C(/C=N/Nc2ccc([N+](=O)[O-])cc2)=C(C)N(c2ccccc2)S1(=O)=O
value measured: 17.3 µM (inactive)

compound: OCC(CN1CCCCC1)(CN1CCCCC1)CN1CCCCC1
value measured: > 100 µM (inactive)
